Value source: PubChem BioAssay (NCI)

# Test system: SNB-19 CNS
# assay_info: NCI-60 one-dose screen, 48 h (100 = growth as untreated, 0 = no growth, -100 = all killed)
# applied_conditions: 10 µM
This is part of a sample that, as a whole, favours compounds with a hit. Of some 83,000 tested, about 20% had one in any assay.
readout_kind: growth (%)
Answer format: numeric, % implied, no suffix.

molecule | target_system | numeric_readout
CC1(C)Cc2c(sc3ncn4nc(-c5ccc(O)cc5)nc4c23)CO1 | SNB-19 CNS | 79.9
C=C(C(=O)c1ccccc1)C(NC(C)(C)C)c1ccccc1 (configuration not stated) | SNB-19 CNS | 80.8
CN(C)C=Nc1cc(Cl)ccc1Cl | SNB-19 CNS | 95.3
O=C(Nc1ccc(OS(=O)(=O)c2ccccc2)cc1)C12CC3CC(CC(C3)C1)C2 | SNB-19 CNS | 71.8
COc1ccc(-c2nn(-c3cccc(NC(=O)Nc4ccc(Cl)c(C(F)(F)F)c4)c3)cc2-c2ccncc2)cc1Cl | SNB-19 CNS | 32.2

## Input May I ask what growth has been recorded for `O=C1Nc2ccccc2C1=NC1CCCCC1` ?
## Output 111

## Input Queued: `CCOC(=O)c1ccoc1`
## Output 97.7

## Input Queued: `COc1ccc(-c2nc3ccccn3c2-c2nnc(-c3cc(OC)c(OC)c(OC)c3)o2)cc1`
## Output 44.5

###

# Tested on: NCI-H460 lung
# assay_info: NCI-60 one-dose screen, 48 h (100 = growth as untreated, 0 = no growth, -100 = all killed)
# applied_conditions: 10 µM
# Experimental: Growth inhibition of the NCI-H460 human Non-Small Cell Lung tumor cell line is measured as a screen for anti-cancer activity. Cells are grown in 96 well plates and exposed to the test compound for 48 hours. Compounds are tested at a single concentration, which is 10^-5 M for most compounds. The reported endpoint is percent growth (GI% or GIPRCNT), where numbers from 0 - 100% represent growth inhibition, and numbers from -100% - 0 represent cell death. […]
About 83,000 compounds went through this panel and 20% of them were active in at least one assay; those are over-represented in the sample as a whole.
readout_kind: growth (%)
Answer format: numeric, % implied, no suffix.

Study these solved cases before continuing.
molecule | growth (%)
O=C(/C=C/c1cc2ccccc2[nH]c1=O)c1ccc2c(c1)OCO2 | 94.4
CSCCCNC(=O)c1ccc2c(c1)/C(=C/c1[nH]c(C)cc1C)C(=O)N2 | 30.8

## Input Checklist item: growth tested on NCI-H460 lung, entry `COC(=O)c1c(-c2ccccc2)csc1NC(=O)c1c(-c2ccccc2)noc1C` , value?
## Output -15.3

## Input Queued: `CC(=O)/C(=C/c1ccccc1)C(=O)CC(C)C`
## Output 99.8

## Input Queued: `O=C(N/N=C\c1cc(Cl)ccc1[N+](=O)[O-])c1ccco1`
## Output 101

## Input Queued: CC1(O)CCC2CC3OC3(C)CCC3OC3(C)CCC1C2(C)C (centres undefined)
## Output 112

## Input Queued: `COc1ccc(-c2nnc(-c3c(-c4ccccc4)nc4ncccn34)o2)cc1OC`
## Output 107

## Input Queued: CCC1(C(C)C)NC(=O)NC1=O (centres undefined)
## Output 110

## Input Queued: `FC(F)(F)c1ccc(-c2cnc(-n3cc(COCCN4CCCCC4)nn3)nc2NC2CCCCCC2)cc1`
## Output -68.3

## Input Queued: CCOC1(OCC)OC(c2ccccc2)=C(C#N)C(/C=C\c2ccccc2)C1(OCC)OCC (centres undefined)
## Output 81.8

## Input Queued: O=C1OCC2=C1C(c1cccc(Br)c1)c1cc3c(cc1N2CCO)CCC3 (centres undefined)
## Output -6.92

## Input Queued: `Oc1[nH]c2ccc(Cl)cc2c1/C=c1/ccc2c(c1)N=C(c1cccs1)N=2`
## Output 66.1

## Input Queued: `COc1cc2cc3c(nc2cc1OC)CCN3Cc1ccc(NC(=O)Nc2cc(C(F)(F)F)cc(C(F)(F)F)c2)cc1`
## Output 63.3

## Input Queued: `COc1ccc(-c2ccc3cc(C(=O)Nc4ccc(O)c(C(=O)/C=C/c5cc(OC)c(OC)c(OC)c5)c4)ccc3c2)cc1`
## Output 95.9

###

# Test system: PC-3 prostate
# assay_info: NCI-60 one-dose screen, 48 h (100 = growth as untreated, 0 = no growth, -100 = all killed)
# applied_conditions: 10 µM
Compounds without any hit were thinned out: in the full panel of roughly 83,000, 20% have a hit.
readout_kind: growth (%)
Answer format: numeric, % implied, no suffix.

Study these solved cases before continuing.
molecule | growth, %
O=c1c2ccccc2nc(SCCN2CCCCC2)n1CCc1ccccc1 | 89.2
COc1ccc2c(c1)/C(=C\c1c[nH]c3ccc(OC)cc13)C(=O)N2 | 60.6
COc1cc(NC(=O)c2sc3nc4c(cc3c2N)C(O)CCC4)cc(OC)c1 (stereo not drawn) | 99.5
CN(C)CC(O)c1ccc2cc(Br)c3ccccc3c2c1 (stereo not drawn) | 49
CC/C(=N\N=C(/CC)c1ccc(Br)cc1)c1ccc(Br)cc1 | 94.2
O=C(C[n+]1ccccc1)c1ccc2ccccc2c1 | 87.8
O=C(Nc1ccc(OS(=O)(=O)c2ccccc2)cc1)C12CC3CC(CC(C3)C1)C2 | 23.6
O=C(Nc1ccncc1)C(=O)c1cn(S(=O)(=O)c2cccc3ccccc23)c2ccccc12 | 68.5

## Input Checklist item: growth tested on PC-3 prostate, entry `COC(=O)c1c(-c2ccccc2)csc1NC(=O)c1c(-c2ccccc2)noc1C` , value?
## Output 32.5

## Input Queued: `O=C(O)CCCCSc1ncnc2nc[nH]c12`
## Output 99.1

###

# Tested on: T-47D breast
# assay_info: NCI-60 one-dose screen, 48 h (100 = growth as untreated, 0 = no growth, -100 = all killed)
# applied_conditions: 10 µM
Compounds without any hit were thinned out: in the full panel of roughly 83,000, 20% have a hit.
Please enter 1 where growth is greater than or equal to 60%, and 0 where it is lower.

compound | cat
Clc1ccc(-c2cn(-c3ccccc3)c(-c3ccccc3)n2)c(Cl)c1 | 0
CCOCC(=O)C(C#N)c1ccc(Cl)c(Cl)c1 (configuration not stated) | 1
Cc1ccc(-c2n[nH]c(=O)c3noc(-c4ccc(C)cc4)c23)cc1 | 0
Cc1ccc(NC(=O)Nc2c(Cl)cccc2Cl)cn1 | 1
COc1ccc2c(c1)-c1c(c3cc(OC)ccc3n(CCN(C)C)c1=O)C2=O | 1
O=C1OCC2=C1C(c1cccc(Cl)c1)c1cc3c(cc1N2CCO)OCO3 (configuration not stated) | 1
COc1cc2c(cc1OCCCN1CCN(c3ncnc4ccccc34)CC1)N=CC1CCCN1C2=O (configuration not stated) | 0
Cc1cc(N(CCCNc2ccnc3cc(Cl)ccc23)Cc2ccc3c(c2)OCO3)nc(N2CCCCC2)n1 | 0

## Input Tell me whether growth is at least 60% here: `Clc1cc2c(c(CSc3nc4ccccc4n4cccc34)c1)OCOC2`
## Output 0

## Input Queued: `Clc1nc(Cl)c2c(ncn2C/C=C\Cn2cnc3c(Cl)nc(Cl)nc32)n1`
## Output 0

## Input Queued: CC1CC(=O)OC(C)C1 (configuration not stated)
## Output 1

###

# System: HS 578T breast
# assay_info: NCI-60 one-dose screen, 48 h (100 = growth as untreated, 0 = no growth, -100 = all killed)
# applied_conditions: 10 µM
About 83,000 compounds went through this panel and 20% of them were active in at least one assay; those are over-represented in the sample as a whole.
readout_kind: growth (%)
Answer format: numeric, % implied, no suffix.

compound | unit_label | growth
COc1cc(Cl)cc(-c2nn(-c3cccc(NC(=O)Nc4ccc(Cl)c(C(F)(F)F)c4)c3)cc2-c2ccncc2)c1 | % | 14.6
COC(=O)c1c(-c2ccccc2)csc1NC(=O)c1c(-c2ccccc2)noc1C | % | 65.9
CC(=O)c1cc(Cl)ccc1O | % | 104

## Input May I ask what growth has been recorded for `Cc1cccc(C)c1NC(=O)c1sc2nc3c(cc2c1N)C(=O)CCC3` ?
## Output 93.2

## Input Queued: `CC(C)(C)c1ccc(N2CSC(=S)N(c3ccc(C(C)(C)C)cc3)C2)cc1`
## Output 112

## Input Queued: COC(=O)C1(C)Cc2cc(OC(C)=O)c(OC(C)=O)cc2N1 (stereo unspecified)
## Output 88.7

## Input Queued: COc1ccc2c(c1)N(CCO)C1=C(C(=O)OC1)C2c1ccc(OC)c(OC)c1 (stereo unspecified)
## Output 31

## Input Queued: `Nc1nccc(Nc2ccccc2)n1`
## Output 107

## Input Queued: `COc1ccc(Cl)cc1C(=O)Nc1nc2ccc(Cl)cc2s1`
## Output 102

## Input Queued: `COc1ccc2c(c1)sc1nc(-c3ccccc3)c(-c3cccnc3)n12`
## Output 99.7

## Input Queued: `O=C1Nc2ccc(Cl)cc2/C1=C\c1c(-c2ccc(Cl)cc2)nc2sc(C3CC3)nn12`
## Output 7.42
